# credit: the RNAGym collection of RNA variant scans (doi:10.1073/pnas.2313332121)

B1: TPR 5TU (parent)
chain: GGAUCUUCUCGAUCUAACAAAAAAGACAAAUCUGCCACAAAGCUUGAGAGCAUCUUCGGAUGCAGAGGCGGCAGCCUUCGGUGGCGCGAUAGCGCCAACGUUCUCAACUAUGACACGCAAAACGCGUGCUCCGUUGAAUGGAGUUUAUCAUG

- Variants of: B1
- protocolDescription: polymerase ribozyme fitness, log enrichment relative to wild type (log ratio); higher = more active; in vitro selection for triplet polymerase activity
Fewer inactive variants are shown than the library holds.
measureName: polymerase ribozyme fitness (log ratio)
Simply state the number, no unit and no words.

What value of polymerase ribozyme fitness (log ratio) has been recorded for this entry: C14G C93U -3.66

Continuing:
What value of polymerase ribozyme fitness (log ratio) has been recorded for this entry: C38U U55A G59C U135C -1.98

Can you handle U102G A120U next? -1.94

Can you handle G92C A122C A150G next? -2.28
